- assayTarget: T1, PUF4 RNA-binding domain (Saccharomyces cerevisiae, UniProt P25339 537-888)
- T1 sequence: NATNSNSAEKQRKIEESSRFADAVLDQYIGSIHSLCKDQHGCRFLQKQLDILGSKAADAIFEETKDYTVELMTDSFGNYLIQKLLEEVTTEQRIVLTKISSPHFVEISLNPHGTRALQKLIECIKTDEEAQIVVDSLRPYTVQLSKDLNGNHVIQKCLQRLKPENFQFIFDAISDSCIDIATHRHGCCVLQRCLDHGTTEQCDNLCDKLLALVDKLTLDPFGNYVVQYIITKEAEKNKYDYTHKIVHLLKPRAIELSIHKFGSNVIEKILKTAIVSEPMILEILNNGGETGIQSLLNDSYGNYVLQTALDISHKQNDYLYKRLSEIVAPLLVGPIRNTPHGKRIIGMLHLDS
- protocolSummary: Mg; RNA-MaP; 20 mM Na-HEPES pH 7.4, 30 mM KOAc, 0.75 mM MgCl2, 0.1% Tween-20, 5% glycerol, 0.1 mg/mL BSA, 2 mM DTT; 25 C; 0.0125-409.6 nM protein
- details: tags: N-His6-TEV cleaved; C-SNAP kept, Cy3B-labelled; label: tethered on chip by stalled RNA polymerase
pKd: −log10 of the molar value.
Please enter Yes where pKd is greater than or equal to 8, and No where it is lower.

binder="Ib_S2_P3E.1_K3.1_C3.1_H3.1_[T1A]_A3.1_[A6G]_F3.1_T3.1 (ssRNA) RNA: UUUGAUUAAUAUGAUAUCGUUCUUUCUAGUAUGUAUUCUUUCUCGAUAUCAUAUUAAUCUUU" class=No
binder="UCUCUUUGUAGCCGGUCUCUU (ssRNA) [Ic_S1_P4E.1_K4.1_C4.1_H4.1_A4.1_[T5G]_[A6C]_[T7C]_F4.1_[T8G]_[A9G]_T4.1]" class=No
binder="Ic_S2_P4E.1_K4.1_C4.1_H4.1_A4.1_[T5A]_[T7A]_F4.1_[A9G]_T4.1 (ssRNA) RNA: UUUGAUUAAUAUGAUAUCGUUCUUUCUUGUAAAAUGUUCUUUCUCGAUAUCAUAUUAAUCUUU" class=No
binder="ACAAACACUAUAUAUUAACACAAAC (ssRNA) [Id_ii_S3_P4E.3_K4.2_C4.2_[C-2A]_[T-1C]_H4.2_A4.1_F4.1_T4.2_[G10A]_[T11C]]" class=No
binder="UCUCUUAUUGUAUAUUAAUUCUCUU (ssRNA) [Id_ii_S1_P4E.2_K4.1_C4.2_[C-2A]_H4.1_A4.1_F4.1_T4.2_[G10A]]" class=Yes
binder="Id_ii_S4_P3E.4_K3.3_C3.2_[C-2G]_[T-1C]_H3.3_A3.1_F3.1_T3.2_[T9C]_[A10C] (ssRNA) RNA: UUUGACAACUGAUCGUUCUUUCUGCACACUAUACCUUCUUUCUCGAUCAGUUGUCUUU" class=No
binder="Id_ii_S2_P5E.4_K5.3_C5.2_[T-1C]_H5.3_A5.1_F5.1_T5.2_[T11C]_[A12C] (ssRNA) RNA: UUUGAUUAAUAUGAUAUCGUUCUUUCUCCACACUUAUUACCUUCUUUCUCGAUAUCAUAUUAAUCUUU" class=No
binder="Id_ii_S2_P4E.3_K4.2_C4.2_[C-2T]_H4.2_A4.1_F4.1_T4.2_[T11C] (ssRNA) RNA: UUUGAUUAAUAUGAUAUCGUUCUUUCUUUUAUAUAUUAGCUUCUUUCUCGAUAUCAUAUUAAUCUUU" class=Yes
binder="Ic_S4_P4E.1_K4.1_C4.1_H4.1_A4.1_[T5G]_[A6T]_[T7A]_F4.1_T4.1 (ssRNA) RNA: UUUGACAACUGAUCGUUCUUUCUUGUAGUAUAUUCUUUCUCGAUCAGUUGUCUUU" class=Yes
binder="UCUCUUCAUGUAUAUUAAUUCUCUU (ssRNA) [Id_ii_S1_P4E.2_K4.1_C4.2_[T-1A]_H4.1_A4.1_F4.1_T4.2_[G10A]]" class=Yes
binder="UCUCUUUCACACUAUACCUCUCUU (ssRNA) [Id_ii_S1_P3E.4_K3.3_C3.2_[C-2T]_[T-1C]_H3.3_A3.1_F3.1_T3.2_[T9C]_[A10C]]" class=No
binder="ACAAACUUACACUUAUUAACACAAAC (ssRNA) [Id_ii_S3_P5E.4_K5.3_C5.2_[C-2T]_H5.3_A5.1_F5.1_T5.2_[T11A]_[A12C]]" class=No
binder="ACAAACUGACACUAUACUACAAAC (ssRNA) [Id_ii_S3_P3E.4_K3.3_C3.2_[C-2T]_[T-1G]_H3.3_A3.1_F3.1_T3.2_[T9C]_[A10T]]" class=No
binder="Ic_S4_P4E.1_K4.1_C4.1_H4.1_A4.1_[T5A]_[A6C]_[T7A]_F4.1_[T8G]_[A9C]_T4.1 (ssRNA) RNA: UUUGACAACUGAUCGUUCUUUCUUGUAACAGCUUCUUUCUCGAUCAGUUGUCUUU" class=No
binder="UCUCUUUGUCUAUUCUCUCUU (ssRNA) [Ib_S1_P4E.1_K4.1_C4.1_H4.1_[A4C]_A4.1_F4.1_[A9C]_T4.1]" class=No
binder="Id_ii_S4_P5E.3_K5.2_C5.2_[C-2T]_H5.2_A5.1_F5.1_T5.2_[T11G]_[A12C] (ssRNA) RNA: UUUGACAACUGAUCGUUCUUUCUUUUAUAUUAUUAGCUUCUUUCUCGAUCAGUUGUCUUU" class=No
binder="UCUCUUCCUAUAUUAUUAUCUCUCUU (ssRNA) [Id_ii_S1_P5E.3_K5.2_C5.2_[T-1C]_H5.2_A5.1_F5.1_T5.2_[A12C]]" class=No
binder="UCUCUUCUUGUAUAUUAAAUCUCUU (ssRNA) [Id_ii_S1_P4E.2_K4.1_C4.2_H4.1_A4.1_F4.1_T4.2_[G10A]_[T11A]]" class=Yes
binder="Ia_S2_P4E.1_K4.1_C4.1_H4.1_[G2T]_A4.1_F4.1_T4.1 (ssRNA) RNA: UUUGAUUAAUAUGAUAUCGUUCUUUCUUUUAUAUUAUUCUUUCUCGAUAUCAUAUUAAUCUUU" class=No
